src = patent US20150184166A1

- experimental-system: NdmB-His6 (Pseudomonas putida)
- experimental-details: Kinetic parameters of NdmB-His6 with His6-NdmD
- Type: biochemical, Pseudomonas putida CBB5
- experimental-context: NdmB-His6 plus His6-NdmD, pH 7.5, 30° C.; read-out: Km
- Description: Methylxanthine N-demethylase activity assay contained, in 1-ml total volume, 0.5 mM methylxanthine, 1 mM NADH, 50 μM Fe(NH4)2(SO4)2, and an appropriate amount of NdmA-His6 or NdmB-His6 (7.4 μg-2.5 mg protein depending on substrate specificity) in 50 mM KPi buffer (pH 7.5). […] Periodically, a small aliquot was sampled from the reaction mixture and mixed with equal volume of acetonitrile for quantifying concentrations of methylxanthines and N-demethylated products by HPLC. […]
Some molecules, each annotated with its measured Km.
recorded-metric: Km (µM)

INSERT INTO results (molecule, experimental_system, measured) VALUES
  ('Cn1c(=O)c2c(ncn2C)n(C)c1=O [Caffeine, 1,3,7-trimethylxanthine]', 'NdmB-His6 (Pseudomonas putida)', 41.7),
  ('Cn1c(=O)[nH]c(=O)c2[nH]cnc21 [3-Methylxanthine, 3-methylxanthine]', 'NdmB-His6 (Pseudomonas putida)', 22.4),
  ('Cn1cnc2c1c(=O)[nH]c(=O)n2C [Theobromine, 3,7-dimethylxanthine]', 'NdmB-His6 (Pseudomonas putida)', 25.3),
  ('Cn1c(=O)c2[nH]cnc2n(C)c1=O [Theophylline, 1,3-dimethylxanthine]', 'NdmB-His6 (Pseudomonas putida)', 169);

###

- System: NdmC
- experimental-details: N-demethylation by NdmC fraction co-purified with reductase
- Format: biochemical, Pseudomonas putida CBB5
recorded-metric: N-demethylation by NdmC/reductase fraction

INSERT INTO assay_data (compound, measured) VALUES
  ('Cn1c(=O)c2c(ncn2C)n(C)c1=O [Caffeine, 1,3,7-trimethylxanthine]', 'not N-demethylated'),
  ('Cn1c(=O)[nH]c2ncn(C)c2c1=O [Paraxanthine, 1,7-dimethylxanthine]', 'not N-demethylated'),
  ('Cn1cnc2c1c(=O)[nH]c(=O)n2C [Theobromine, 3,7-dimethylxanthine]', 'not N-demethylated');

###

- experimental-system: NdmB-His6 (Pseudomonas putida, UniProt H9N290)
- Sequence (H9N290 whole entry): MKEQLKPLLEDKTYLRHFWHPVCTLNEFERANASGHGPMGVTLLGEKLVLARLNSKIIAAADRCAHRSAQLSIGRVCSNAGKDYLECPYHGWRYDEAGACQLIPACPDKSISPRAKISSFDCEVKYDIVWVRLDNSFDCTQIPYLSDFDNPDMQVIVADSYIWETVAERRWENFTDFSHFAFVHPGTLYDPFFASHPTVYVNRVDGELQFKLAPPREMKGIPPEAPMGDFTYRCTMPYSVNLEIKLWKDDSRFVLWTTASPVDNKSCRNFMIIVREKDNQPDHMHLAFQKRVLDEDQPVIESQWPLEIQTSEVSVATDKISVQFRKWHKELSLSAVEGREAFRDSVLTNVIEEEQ
- experimental-details: Kinetic parameters of NdmB-His6 with His6-NdmD
- Type: biochemical, Pseudomonas putida CBB5
- experimental-context: NdmB-His6 plus His6-NdmD, pH 7.5, 30° C.
We begin with a simple list: items and their reported kcat.
recorded-metric: kcat (s⁻¹)

INSERT INTO measurements (compound, recorded_metric, units, measured) VALUES
  ('Cn1c(=O)[nH]c(=O)c2[nH]cnc21 [3-Methylxanthine, 3-methylxanthine]', 'kcat', 's⁻¹', 0.528),
  ('Cn1cnc2c1c(=O)[nH]c(=O)n2C [Theobromine, 3,7-dimethylxanthine]', 'kcat', 's⁻¹', 0.772),
  ('Cn1c(=O)c2c(ncn2C)n(C)c1=O [Caffeine, 1,3,7-trimethylxanthine]', 'kcat', 's⁻¹', 0.00383),
  ('Cn1c(=O)c2[nH]cnc2n(C)c1=O [Theophylline, 1,3-dimethylxanthine]', 'kcat', 's⁻¹', 0.0045);
